target: T1, Anti-PSMA Fab (SEQ ID NOs: 19, 20); assay: phage ELISA; PSMA Fab on plate pre-incubated with PSMA antigen as competitor, anti-M13-HRP detection;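 also: clonal phage from crude supernatants added without washing to wells preblocked with or without PSMA antigen, washed, bound phage read out by ELISA with HRP-linked anti-M13 antibody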
T1 construct: Biotinylated and captured on neutravidin coated plates in the phage ELISA; also called 006 PSMA Fab
Where no end group is shown, it is not given here.
Heads up, the class ranges for Phage binding ELISA, Anti-PSMA Fab signal in the presence of PSMA are lo (below 0.08), mid (0.08 to below 0.1), hi (0.1 or more)

YEKWCTPPWMCEML (tested as crude phage supernatant) [Phage-1986] :: mid

Query :: Please report the category associated with GSNWCKPAWMCEIM (tested as crude phage supernatant) [Phage-1996] , nothing else.
Result :: lo

Query :: Try this binder too: FDKWCIPTWMCELV (tested as crude phage supernatant) [Phage-1994]
Result :: hi

Query :: Try this binder too: PVKWCIPDWMCAYL (cysteine pairing not given here; also: displayed as fusion to phage pIII, tested as crude phage supernatant) [Phage-1992]
Result :: hi

Query :: Try this binder too: LMKWCIPEWMCVDS (tested as crude phage supernatant) [Phage-1990]
Result :: lo

Query :: Try this binder too: LVKWCTPSWMCINL (tested as crude phage supernatant) [Phage-1991]
Result :: mid

Query :: Try this binder too: EPKLCTPTWMCIGF (tested as crude phage supernatant) [Phage-1989]
Result :: hi

Query :: Try this binder too: LDNWCRPLWMCTGF (tested as crude phage supernatant) [Phage-1988]
Result :: mid

Query :: Try this binder too: VVKMCRPAWMCDLV (tested as crude phage supernatant) [Phage-1984]
Result :: mid

Query :: Try this binder too: LENWCIPRWMCHGF (tested as crude phage supernatant) [Phage-1985]
Result :: hi

Query :: Try this binder too: VEKWCTPPWMCAGW (cysteine pairing not given here; also: displayed as fusion to phage pIII, tested as crude phage supernatant) [Phage-1987]
Result :: lo

Query :: Try this binder too: MGKWCIPPWMCVVD (tested as crude phage supernatant) [Phage-1995]
Result :: hi

Query :: Try this binder too: EVKWCTPPWMCMFD (tested as crude phage supernatant) [Phage-1993]
Result :: lo

Query :: Try this binder too: IFEWCVPAWMCESR (tested as crude phage supernatant) [Phage-1983]
Result :: hi
